details: human gut metagenome, 24 h, 2 µM; further: call rule not given here
recorded.endpoint: Bacterial Biotransformation

Completed entries (count: 4):
[[record]]
compound = "C[C@]12C=CC(=O)C=C1CC[C@@H]1[C@@H]2C(=O)C[C@@]2(C)[C@H]1CC[C@]2(O)C(=O)CO [PREDNISONE]"
value_reported = "Compound NOT metabolized"

[[record]]
compound = "CCOc1cc(CC(=O)N[C@@H](CC(C)C)c2ccccc2N2CCCCC2)ccc1C(=O)O [REPAGLINIDE]"
value_reported = "Compound NOT metabolized"

[[record]]
compound = "CN1CCC[C@@H]1CCO[C@](C)(c1ccccc1)c1ccc(Cl)cc1.O=C(O)/C=C/C(=O)O [CLEMASTINE FUMARATE]"
value_reported = "Compound metabolized"

[[record]]
compound = "CC(C)c1c(CN(C)C(C)Cc2ccccc2)n(C)n(-c2ccccc2)c1=O (stereo not drawn) [FAMPROFAZONE]"
value_reported = "Compound metabolized"


IN: Report Bacterial Biotransformation for O=C1N=C([O-])NC1(c1ccccc1)c1ccccc1.[Na+] [PHENYTOIN SODIUM] please.
OUT: Compound NOT metabolized

IN: Report Bacterial Biotransformation for CC12CC3CC(C)(C1)CC(N)(C3)C2 [MEMANTINE] please.
OUT: Compound NOT metabolized

IN: Report Bacterial Biotransformation for O=C([O-])C[C@H](O)C[C@H](O)/C=C/c1c(C2CC2)nc2ccccc2c1-c1ccc(F)cc1.O=C([O-])C[C@H](O)C[C@H](O)/C=C/c1c(C2CC2)nc2ccccc2c1-c1ccc(F)cc1.[Ca+2] [PITAVASTATIN CALCIUM] please.
OUT: Compound NOT metabolized

IN: Report Bacterial Biotransformation for CC(=O)O[C@]1(C(C)=O)CC[C@H]2[C@@H]3C=C(C)C4=CC(=O)CC[C@]4(C)[C@H]3CC[C@@]21C [MEGESTROL ACETATE] please.
OUT: Compound metabolized

* * *

assay: The drug is tested on WLS-370 corresponding to human gut metagenome with ENA study accession number: PRJEB37062 and ENA sample accession number: ERS12561793 for biotransformation under anaerobic condition. The drug concentrations were measured over 9 timepoints collected between 0 and 24 hours of incubation by liquid-chromatography-coupled mass spectrometry (LC–MS); settings: 2 µM
recorded.endpoint: Bacterial Biotransformation

Completed entries (count: 10):
[[record]]
compound = "COc1ccccc1OCCNCC(O)COc1cccc2[nH]c3ccccc3c12 (stereo not drawn) [CARVEDILOL]"
value_reported = "Compound NOT metabolized"

[[record]]
compound = "CCOC(=O)C1=C[C@]2(CC)CCCN3CCc4c(n1c1ccccc41)[C@@H]32 [VINPOCETINE]"
value_reported = "Compound metabolized"

[[record]]
compound = "CN1CCC(=C2c3ccccc3CC(=O)c3sccc32)CC1.O=C(O)/C=C/C(=O)O [KETOTIFEN FUMARATE]"
value_reported = "Compound metabolized"

[[record]]
compound = "CC(C)(C)NC(=O)[C@H]1CC[C@H]2[C@@H]3CC[C@H]4NC(=O)C=C[C@]4(C)[C@H]3CC[C@]12C [FINASTERIDE]"
value_reported = "Compound metabolized"

[[record]]
compound = "N#Cc1ccc2c(c1)N(CCCN1CCC(O)CC1)c1ccccc1S2 [PERICIAZINE]"
value_reported = "Compound NOT metabolized"

[[record]]
compound = "CCN(CC)C(=O)C1(c2ccccc2)CC1CN (stereo not drawn)"
value_reported = "Compound NOT metabolized"

[[record]]
compound = "Br.COc1ccc2c(c1)[C@]13CCCC[C@@H]1[C@H](C2)N(C)CC3.O [DEXTROMETHORPHAN HYDROBROMIDE]"
value_reported = "Compound metabolized"

[[record]]
compound = "CCN(C(C)=O)c1cccc(-c2ccnc3c(C#N)cnn23)c1 [ZALEPLON]"
value_reported = "Compound metabolized"

[[record]]
compound = "Cc1nc(Nc2ncc(C(=O)Nc3c(C)cccc3Cl)s2)cc(N2CCN(CCO)CC2)n1 [DASATINIB ANHYDROUS]"
value_reported = "Compound metabolized"

[[record]]
compound = "O=C1CN2Cc3c(ccc(Cl)c3Cl)N=C2N1 [ANAGRELIDE]"
value_reported = "Compound NOT metabolized"


IN: Report Bacterial Biotransformation for CC(C)[C@H]1CC[C@H](C(=O)N[C@H](Cc2ccccc2)C(=O)O)CC1 [NATEGLINIDE] please.
OUT: Compound metabolized

IN: Report Bacterial Biotransformation for COc1ccc([C@@H]2Sc3ccccc3N(CCN(C)C)C(=O)[C@@H]2OC(C)=O)cc1 [DILTIAZEM] please.
OUT: Compound metabolized

IN: Report Bacterial Biotransformation for Cc1cc2c(s1)Nc1ccccc1N=C2N1CCN(C)CC1 [OLANZAPINE] please.
OUT: Compound NOT metabolized

IN: Report Bacterial Biotransformation for CC[C@@]1(O)C(=O)OCc2c1cc1n(c2=O)Cc2cc3c(CN(C)C)c(O)ccc3nc2-1 [TOPOTECAN] please.
OUT: Compound NOT metabolized

IN: Report Bacterial Biotransformation for CCN(CC)CCOC(=O)C1(C2CCCCC2)CCCCC1 [DICYCLOMINE] please.
OUT: Compound NOT metabolized

IN: Report Bacterial Biotransformation for O=C(O)c1cc(/N=N/c2ccc(S(=O)(=O)Nc3ccccn3)cc2)ccc1O [SULFASALAZINE] please.
OUT: Compound metabolized

IN: Report Bacterial Biotransformation for O=C(NC(Cc1cc(=O)[nH]c2ccccc12)C(=O)O)c1ccc(Cl)cc1 (stereo not drawn) [REBAMIPIDE] please.
OUT: Compound metabolized

IN: Report Bacterial Biotransformation for COc1ccc(/C=C/C(=O)Nc2ccccc2C(=O)O)cc1OC please.
OUT: Compound NOT metabolized
